Every entry's value here was drawn from ChEMBL document CHEMBL3286180.

- Experimental details: Clearance in rat at 1 mg/kg, iv
- Assay type: ADME, organism-based
- Set-up: dose 1 mg/kg, route intravenous
- Condition summary: in vivo
Observed property: clearance (mL/min/kg)

Molecule: Cc1cc(C(=O)N[C@H]2CC[C@@H](NC(=O)c3cc(F)cnc3Oc3cccc(-c4ccc(O)cc4CN4CCOCC4)c3)CC2)nn1C
clearance [mL/min/kg]: 69
//
Molecule: Cc1cccc2nc(C(=O)N[C@H]3CC[C@@H](NC(=O)c4cc(F)cnc4Oc4cccc(-c5ccc(CN6C[C@@H](C)N[C@@H](C)C6)cc5)c4)CC3)cn12
clearance [mL/min/kg]: 61

I. Cc1cccc2nc(C(=O)N[C@H]3CC[C@@H](NC(=O)c4cc(F)cnc4Oc4cccc(-c5ccc(CN6CCC(N7CCCC7)CC6)cc5)c4)CC3)cn12
II. Cc1ccc(O)c(C(=O)N[C@H]2CC[C@@H](NC(=O)c3cc(F)cnc3Oc3cccc(-c4ccc(CN5C[C@@H](C)N[C@@H](C)C5)cc4CN4CCOCC4)c3)CC2)c1
Select the item whose clearance value is smaller, choosing between I and II . Response format: the label of the selected entry.
II
(II: 50 mL/min/kg, I: 79 mL/min/kg)

----------
- Experimental target: 3',5'-cyclic-AMP phosphodiesterase 4B (Homo sapiens, UniProt Q07343)
- Sequence (Q07343 whole entry): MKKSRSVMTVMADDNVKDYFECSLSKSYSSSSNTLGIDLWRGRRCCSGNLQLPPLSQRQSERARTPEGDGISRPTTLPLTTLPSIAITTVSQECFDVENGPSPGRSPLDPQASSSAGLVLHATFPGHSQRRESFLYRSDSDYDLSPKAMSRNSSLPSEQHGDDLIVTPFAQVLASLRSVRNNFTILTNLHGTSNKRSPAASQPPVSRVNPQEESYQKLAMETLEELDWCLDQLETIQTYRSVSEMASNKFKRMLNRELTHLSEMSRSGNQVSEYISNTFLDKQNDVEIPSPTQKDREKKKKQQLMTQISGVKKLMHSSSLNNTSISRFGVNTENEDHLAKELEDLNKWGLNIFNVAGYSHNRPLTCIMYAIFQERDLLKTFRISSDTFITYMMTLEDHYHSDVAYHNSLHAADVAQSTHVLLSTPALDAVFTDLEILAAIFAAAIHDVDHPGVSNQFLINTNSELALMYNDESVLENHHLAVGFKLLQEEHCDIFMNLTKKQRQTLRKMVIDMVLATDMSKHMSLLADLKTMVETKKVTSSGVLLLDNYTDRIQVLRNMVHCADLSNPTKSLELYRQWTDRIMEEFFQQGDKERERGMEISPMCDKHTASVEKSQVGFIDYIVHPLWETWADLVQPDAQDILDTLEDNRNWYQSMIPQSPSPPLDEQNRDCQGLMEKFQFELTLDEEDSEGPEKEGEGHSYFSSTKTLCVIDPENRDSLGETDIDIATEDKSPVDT
- Experimental details: Inhibition of human recombinant PDE4B using [3H]cAMP by packard topcount scintillation counting analysis
Observed property: IC50 (nM)

Compound structure string: Cc1csc(C(=O)N[C@H]2CC[C@@H](NC(=O)c3cc(F)cnc3Oc3cccc(-c4ccc(CN5C[C@@H](C)N[C@@H](C)C5)cc4CN4CCOCC4)c3)CC2)n1
Experimental target: 3',5'-cyclic-AMP phosphodiesterase 4B (Homo sapiens, UniProt Q07343)
IC50, nM: 0.0251

P. Cc1cc(C)n2ncc(C(=O)N[C@H]3CC[C@@H](NC(=O)c4cc(F)cnc4Oc4cccc(-c5ccc(O)cc5CN5CCOCC5)c4)CC3)c2n1
Q. Cc1ccc(O)c(C(=O)N[C@H]2CC[C@@H](NC(=O)c3cc(F)cnc3Oc3ccc(F)c(F)c3)CC2)c1
R. CN(C)Cc1cc(O)ccc1-c1cccc(Oc2ncc(F)cc2C(=O)N[C@H]2CC[C@@H](NC(=O)c3cccc4oc(=O)[nH]c34)CC2)c1
S. C[C@@H]1CN(Cc2ccc(-c3cccc(Oc4ncc(F)cc4C(=O)N[C@H]4CC[C@@H](NC(=O)c5ncccc5O)CC4)c3)cc2)C[C@H](C)N1
T. Cc1cc(C(=O)N[C@H]2CC[C@@H](NC(=O)c3cc(F)cnc3Oc3cccc(-c4ccc(CCCN5C[C@@H](C)N[C@@H](C)C5)cc4)c3)CC2)nn1C
Rank ascending by IC50. Ranked list of labels, please, in the requested order.
T, P, S, Q, R
(T: 0.02 nM, P: 0.0501 nM, S: 0.126 nM, Q: 0.631 nM, R: 20 nM)

----------
- Experimental details: Clearance in rat at 1 mg/kg, iv
- Format: ADME, organism-based
- Design: dose 1 mg/kg, route intravenous
- Condition summary: in vivo
Observed property: clearance (mL/min/kg)

Compound structure string: Cc1cc(C(=O)N[C@H]2CC[C@@H](NC(=O)c3cc(F)cnc3Oc3cccc(-c4ccc(CCCN5C[C@@H](C)N[C@@H](C)C5)cc4)c3)CC2)nn1C
clearance / mL/min/kg: 68

Compound structure string: Cc1csc(C(=O)N[C@H]2CC[C@@H](NC(=O)c3cc(F)cnc3Oc3cccc(-c4ccc(CN5C[C@@H](C)N[C@@H](C)C5)cc4CN4CCOCC4)c3)CC2)n1
clearance / mL/min/kg: 44

Compound structure string: C[C@@H]1CN(Cc2ccc(-c3cccc(Oc4ncc(F)cc4C(=O)N[C@H]4CC[C@@H](NC(=O)c5cc6ccccn6n5)CC4)c3)cc2)C[C@H](C)N1
clearance / mL/min/kg: 58

----------
- Experimental details: Fraction unbound in human plasma
- Type: ADME, cell-free
Observed property: fraction unbound

// worked examples, fraction unbound included
Compound structure string: COc1cccc(Nc2c(C(N)=O)cnc3c(C)cc(S(=O)(=O)c4cccc(C(=O)N(C)C)c4)cc23)c1
Numeric readout: 0.015

Compound structure string: Cc1cc(C(=O)N[C@H]2CC[C@@H](NC(=O)c3cc(F)cnc3Oc3cccc(-c4ccc(O)c(CN5C[C@@H](C)N[C@@H](C)C5)c4)c3)CC2)nn1C
Numeric readout: 0.16

Compound structure string: C[C@@H]1CN(Cc2ccc(-c3cccc(Oc4ncc(F)cc4C(=O)N[C@H]4CC[C@@H](NC(=O)c5cc6ccccn6n5)CC4)c3)cc2)C[C@H](C)N1
Numeric readout: 0.045

Compound structure string: Cc1csc(C(=O)N[C@H]2CC[C@@H](NC(=O)c3cc(F)cnc3Oc3cccc(-c4ccc(CN5C[C@@H](C)N[C@@H](C)C5)cc4CN4CCOCC4)c3)CC2)n1
Numeric readout: 0.045

Compound structure string: Cc1cc(C(=O)N[C@H]2CC[C@@H](NC(=O)c3cc(F)cnc3Oc3cccc(-c4ccc(CCCN5C[C@@H](C)N[C@@H](C)C5)cc4)c3)CC2)nn1C
Numeric readout: 0.045

I. Cc1cc(C(=O)N[C@H]2CC[C@@H](NC(=O)c3cc(F)cnc3Oc3cccc(-c4cccc(CN5C[C@@H](C)N[C@@H](C)C5)c4O)c3)CC2)nn1C
II. Cc1ccc(O)c(C(=O)N[C@H]2CC[C@@H](NC(=O)c3cc(F)cnc3Oc3ccc(F)c(F)c3)CC2)c1
API: POST /compare with I and II ; response names the item with higher fraction unbound. Response format: the label of the selected entry.
I

----------
- Experimental details: Volume of distribution at steady state in rat at 1 mg/kg, iv
- Type: ADME, organism-based
- Design: dose 1 mg/kg, route intravenous
- Condition summary: in vivo, read-out: Vdss
Observed property: Vd (L/kg)

// worked examples, Vd included
Compound: Cc1ccc(O)c(C(=O)N[C@H]2CC[C@@H](NC(=O)c3cc(F)cnc3Oc3cccc(-c4ccc(CN5C[C@@H](C)N[C@@H](C)C5)cc4CN4CCOCC4)c3)CC2)c1
Unit abbreviation: L/kg
Vd: 16

Compound: Cc1cccc2nc(C(=O)N[C@H]3CC[C@@H](NC(=O)c4cc(F)cnc4Oc4cccc(-c5ccc(CN6C[C@@H](C)N[C@@H](C)C6)cc5)c4)CC3)cn12
Unit abbreviation: L/kg
Vd: 14

Compound: Cc1csc(C(=O)N[C@H]2CC[C@@H](NC(=O)c3cc(F)cnc3Oc3cccc(-c4ccc(CN5C[C@@H](C)N[C@@H](C)C5)cc4CN4CCOCC4)c3)CC2)n1
Unit abbreviation: L/kg
Vd: 18

Compound: Cc1cc(C(=O)N[C@H]2CC[C@@H](NC(=O)c3cc(F)cnc3Oc3cccc(-c4ccc(CCCN5C[C@@H](C)N[C@@H](C)C5)cc4)c3)CC2)nn1C
Unit abbreviation: L/kg
Vd: 21

Compound: Cc1cccc2nc(C(=O)N[C@H]3CC[C@@H](NC(=O)c4cc(F)cnc4Oc4cccc(-c5ccc(CN6CCC(N7CCCC7)CC6)cc5)c4)CC3)cn12
Unit abbreviation: L/kg
Vd: 60

a. Cc1ccc(O)c(C(=O)N[C@H]2CC[C@@H](NC(=O)c3cc(F)cnc3Oc3ccc(F)c(F)c3)CC2)c1 [UK-500001]
b. C[C@@H]1CN(Cc2ccc(-c3cccc(Oc4ncc(F)cc4C(=O)N[C@H]4CC[C@@H](NC(=O)c5cc6ccccn6n5)CC4)c3)cc2)C[C@H](C)N1
c. Cc1cc(C(=O)N[C@H]2CC[C@@H](NC(=O)c3cc(F)cnc3Oc3cccc(-c4ccc(CCN5CCC(N6CCCC6)CC5)cc4)c3)CC2)nn1C
d. Cc1cc(C(=O)N[C@H]2CC[C@@H](NC(=O)c3cc(F)cnc3Oc3cccc(-c4ccc(O)cc4CN4CCOCC4)c3)CC2)nn1C
Rank ascending by Vd. Ranked list of labels, please, in the requested order.
d, b, a, c
(d: 2.6 L/kg, b: 13 L/kg, a: 22 L/kg, c: 44 L/kg)

----------
- Tested on: PBMC
- Experimental details: Antiinflammatory activity in human PBMC assessed as inhibition of LPS-induced TNFalpha production after 20 hrs by fluorescence linked immunosorbant assay
- Type: functional, cell-based
Each item that follows carries a reported IC50.
The response must be a number in pM with no trailing unit.

Compound structure string: Cc1ccc(O)c(C(=O)N[C@H]2CC[C@@H](NC(=O)c3cc(F)cnc3Oc3ccc(F)c(F)c3)CC2)c1
Experimental target: PBMC
Numeric readout: 3980
//
Compound structure string: Cc1ccc(O)c(C(=O)N[C@H]2CC[C@@H](NC(=O)c3cc(F)cnc3Oc3cccc(-c4ccc(CN5C[C@@H](C)N[C@@H](C)C5)cc4CN4CCOCC4)c3)CC2)c1
Experimental target: PBMC
Numeric readout: 39.8
//
Compound structure string: Cc1cccc2nc(C(=O)N[C@H]3CC[C@@H](NC(=O)c4cc(F)cnc4Oc4cccc(-c5ccc(CN6CCC(N7CCCC7)CC6)cc5)c4)CC3)cn12
Experimental target: PBMC
Numeric readout: 251
//
Compound structure string: Cc1csc(C(=O)N[C@H]2CC[C@@H](NC(=O)c3cc(F)cnc3Oc3cccc(-c4ccc(CN5C[C@@H](C)N[C@@H](C)C5)cc4CN4CCOCC4)c3)CC2)n1
Experimental target: PBMC
Numeric readout: 20
//
Compound structure string: Cc1cc(C(=O)N[C@H]2CC[C@@H](NC(=O)c3cc(F)cnc3Oc3cccc(-c4ccc(CN5C[C@@H](C)N[C@@H](C)C5)cc4)c3)CC2)nn1C
Experimental target: PBMC
Numeric readout: 100

For the compound shown here, "C[C@@H]1CN(Cc2ccc(-c3cccc(Oc4ncc(F)cc4C(=O)N[C@H]4CC[C@@H](NC(=O)c5cc6ccccn6n5)CC4)c3)cc2)C[C@H](C)N1" , give the reported IC50.
79.4
